system: velvetleaf (Abutilon theophrasti); experiment: Test on herbicidal effects by soil treatment: velvetleaf; assay type: in vivo; conditions: 5 g/ha, four weeks after application
recordedEndpoint: Fresh weight ratio with respect to untreated weeds, A.th
Could you kindly put the unit after your number?

Worked examples follow.
| compound | val |
| --- | --- |
| CCS(=O)(=O)N(C(=O)C(C)(C)C)c1cc(-n2c(=O)cc(C(F)(F)F)n(C)c2=O)c(F)cc1C#N | 24% |
| CCS(=O)(=O)N(C(=O)c1ccc(OC)cc1)c1cc(-n2c(=O)cc(C(F)(F)F)n(C)c2=O)c(F)cc1Cl | 27% |
| CC1COc2ccccc2N1C(=O)C(Cl)Cl (centres unmarked) [Compound (E)] | 100% |
| Cn1c(C(F)(F)F)cc(=O)n(-c2cc(NS(C)(=O)=O)c(C#N)cc2F)c1=O | 32% |
| CC1(C)CN2C(=O)CCC2(C)N(C(=O)C(Cl)Cl)C1 (centres unmarked) | 100% |
| CCS(=O)(=O)Nc1cc(-n2c(=O)cc(C(F)(F)F)n(C)c2=O)c(F)cc1Cl | 26% |

[Q] Value lookup for Fresh weight ratio with respect to untreated weeds, A.th; key = CC1(C)OC(c2ccco2)CN1C(=O)C(Cl)Cl (centres unmarked)
[A] 100%

[Q] Recorded Fresh weight ratio with respect to untreated weeds, A.th of O=C(C(Cl)Cl)N1CCOC12CCCCC2 , please.
[A] 100%

###

system: maize; experiment: Test on phytotoxicity to maize sown at a shallow sowing depth (soil treatment, pot test); assay type: in vivo; conditions: maize sown at 1 cm depth; 80 g/ha; 17 days after application
recordedEndpoint: Fresh weight ratio with respect to untreated plants (%)
Please respond with the number in % and leave the unit unwritten.

Would you please look over these solved cases?
| molecule | testedSystem | val |
| --- | --- | --- |
| CC1(C)CN2C(=O)CCC2(C)N(C(=O)C(Cl)Cl)C1 (centres unmarked) | maize | 100 |
| Cn1c(C(F)(F)F)cc(=O)n(-c2cc(NS(C)(=O)=O)c(C#N)cc2F)c1=O | maize | 76 |
| CCS(=O)(=O)Nc1cc(-n2c(=O)cc(C(F)(F)F)n(C)c2=O)c(F)cc1Cl | maize | 55 |

[Q] Name the reported Fresh weight ratio with respect to untreated plants value associated with the molecule CCS(=O)(=O)N(C(=O)c1ccc(OC)cc1)c1cc(-n2c(=O)cc(C(F)(F)F)n(C)c2=O)c(F)cc1Cl
[A] 57

[Q] Would you kindly share the measured Fresh weight ratio with respect to untreated plants for CC1(C)OC(c2ccco2)CN1C(=O)C(Cl)Cl (centres unmarked) ?
[A] 100

[Q] Please give the measured Fresh weight ratio with respect to untreated plants for this molecule: CCS(=O)(=O)N(C(=O)C(C)(C)C)c1cc(-n2c(=O)cc(C(F)(F)F)n(C)c2=O)c(F)cc1C#N
[A] 60

[Q] Could you tell me which Fresh weight ratio with respect to untreated plants is on file for CC1COc2ccccc2N1C(=O)C(Cl)Cl (centres unmarked) [Compound (E)] ?
[A] 100

[Q] Name the reported Fresh weight ratio with respect to untreated plants value associated with the molecule O=C(C(Cl)Cl)N1CCOC12CCCCC2
[A] 100

###

Recorded Fresh weight ratio with respect to untreated weeds, A.ar by entry
tested on: common ragweed (Ambrosia artemisiaefolia); assay: Test on herbicidal effects by soil treatment: common ragweed; assay type: in vivo; details: 5 g/ha, four weeks after application

| compound | val |
| --- | --- |
| CCS(=O)(=O)N(C(=O)C(C)(C)C)c1cc(-n2c(=O)cc(C(F)(F)F)n(C)c2=O)c(F)cc1C#N [Compound (A3)] | 37% |
| CCS(=O)(=O)Nc1cc(-n2c(=O)cc(C(F)(F)F)n(C)c2=O)c(F)cc1Cl [Compound (A1)] | 31% |
| O=C(C(Cl)Cl)N1CCOC12CCCCC2 [Compound (D)] | 100% |
| CC1(C)OC(c2ccco2)CN1C(=O)C(Cl)Cl (centres unmarked) [Compound (B)] | 100% |

[Q] Report Fresh weight ratio with respect to untreated weeds, A.ar for CC1COc2ccccc2N1C(=O)C(Cl)Cl (centres unmarked) [Compound (E)] please.
[A] 100%

[Q] Would you mind telling me what Fresh weight ratio with respect to untreated weeds, A.ar value was observed for CCS(=O)(=O)N(C(=O)c1ccc(OC)cc1)c1cc(-n2c(=O)cc(C(F)(F)F)n(C)c2=O)c(F)cc1Cl [Compound (A4)] ?
[A] 40%

[Q] Need Fresh weight ratio with respect to untreated weeds, A.ar, item Cn1c(C(F)(F)F)cc(=O)n(-c2cc(NS(C)(=O)=O)c(C#N)cc2F)c1=O [Compound (A2)]
[A] 40%

[Q] Can you share its Fresh weight ratio with respect to untreated weeds, A.ar? I mean this compound: CC1(C)CN2C(=O)CCC2(C)N(C(=O)C(Cl)Cl)C1 (centres unmarked) [Compound (C)]
[A] 100%

Origin of values: patent US6562756B1
